# Affinity per record follows
molecular target: Muscarinic acetylcholine receptor M4 (Homo sapiens) (UniProt P08173); assay: Binding affinity at the NMS liganded human muscarinic acetylcholine receptor M4 was estimated as log affinity (log1/M)
Sequence (P08173 whole entry): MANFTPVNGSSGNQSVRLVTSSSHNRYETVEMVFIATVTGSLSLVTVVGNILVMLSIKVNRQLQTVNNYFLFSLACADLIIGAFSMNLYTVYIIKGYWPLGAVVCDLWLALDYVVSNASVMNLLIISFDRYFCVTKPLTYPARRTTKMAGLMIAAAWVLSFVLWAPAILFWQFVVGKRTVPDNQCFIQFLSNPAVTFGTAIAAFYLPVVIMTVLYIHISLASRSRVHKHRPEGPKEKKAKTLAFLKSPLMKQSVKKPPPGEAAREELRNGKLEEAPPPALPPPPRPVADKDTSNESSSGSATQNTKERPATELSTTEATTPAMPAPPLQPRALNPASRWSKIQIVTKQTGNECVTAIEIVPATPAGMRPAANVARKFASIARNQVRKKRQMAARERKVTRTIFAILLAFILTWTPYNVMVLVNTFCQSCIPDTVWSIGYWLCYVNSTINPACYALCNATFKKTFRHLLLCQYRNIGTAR
Keep it simple and answer with nothing but the number.

Examples from the recorded data:
>>> recorded_result("CCC[N+]12CC[C@@]34c5ccccc5N5C(=O)C[C@@H]6OCC=C(C1)[C@H](C[C@@H]32)[C@@H]6[C@H]54 (some centres not stated)")
4.9
>>> recorded_result("N[N+]12CC[C@@]34c5ccccc5N5C(=O)C[C@@H]6OCC=C(C1)[C@H](C[C@@H]32)[C@@H]6[C@H]54 (some centres not stated)")
4.9
>>> recorded_result("O=C1C[C@@H]2OCC=C3C[N+]4(CCc5ccccc5)CC[C@]56c7ccccc7N1[C@H]5[C@H]2[C@H]3C[C@@H]64 (some centres not stated)")
5.5
>>> recorded_result("C[N+]12CC[C@@]34c5ccccc5N5C(=O)C[C@@H]6OCC=C(C1)[C@H](C[C@@H]32)[C@@H]6[C@H]54 (some centres not stated)")
4.7
>>> recorded_result("O=C1C[C@@H]2OCC=C3C[N+]4(Cc5ccc6ccccc6c5)CC[C@]56c7ccccc7N1[C@H]5[C@H]2[C@H]3C[C@@H]64 (some centres not stated)")
5.9
>>> recorded_result("COc1cc2c(cc1OC)[C@@]13CC[N+]4([O-])CC5=CCO[C@H]6CC(=O)N2[C@H]1[C@H]6[C@H]5C[C@@H]34 (some centres not stated)")
3.7

Turning to the following compound.
Data request: I have this compound here, COc1cc2c(cc1OC)[C@@]13CCN4CC5=CCO[C@H]6CC(=O)N2[C@H]1[C@H]6[C@H]5C[C@H]43 , and I need its recorded Affinity.
Data returned: 4.5
